experiment: protein stability index of a GFP-peptide fusion (GPS, HEK-293T) (PSI 1-6); higher = more stable;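 further: 24-mer peptide tiles fused after GFP, lentivirally expressed, FACS-sorted into six equal bins by GFP/DsRed ratio, decoded by Illumina sequencing, PSI is the read-weighted mean bin number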
test.settings: treatment: DMSO; c terminus: a fixed tail appended
protein stability index of 3 or higher: met. Under 3: not met.

The following sequences have reported results that may help.
{"columns": ["sequence.chain", "class"],
 "data": [
  ["SLVAPLLLELAGEVTDTGDPIVRP [MYORG]", "met"],
  ["GSCQLGGGRGVSTCSTRFVSGGSA [KRT13]", "met"],
  ["TSYYIRYRGAVYADSGNFKRCINL [FEM1C]", "not met"],
  ["CIKIWDVTSQATLLTITKAHSNAI [WDR88]", "not met"],
  ["KEPPLLLGVLHPNTKLRQAERLFE [APMAP]", "not met"]
]}

Input: Reported protein stability index at or above 3? PPRTIKRTRRRLSRNRDPGRLILS [PWWP2B]
Output: met

Input: Reported protein stability index at or above 3? ALTNIQNCMAEKRETVLIETQLKA [C8orf76]
Output: met

* * *

experiment: protein stability index of a GFP-peptide fusion (GPS, HEK-293T) (PSI 1-6); higher = more stable
test.settings: treatment: DMSO; c terminus: a fixed tail appended
As shown below, each of these sequences has a reported protein stability index value.
Please reply with the number alone, leaving off any unit.

Recorded protein stability index, per entry:
{"columns": ["sequence.chain", "protein stability index"],
 "data": [
  ["NLASYDVCSILLGTSTLLVWVGVI [MCOLN1]", 3.08],
  ["TTEKQRLVKKLQDSVLERWVNDPQ [GOLPH3L]", 3.71],
  ["KILYDDGKMVEEVDGRATQKLIVN [PTPRD]", 3.92],
  ["EVTDTGDPIVRPLWWIAPGDETAH [MYORG]", 4.25],
  ["EHKGWYSWVLSMLYGFLLTFGFIT [CLPTM1]", 2.4]
]}

From here, focus on the item given below.
Input: Output protein stability index of SNGSMHNYCPQQTKITSAFKYINT [EDNRA]
Output: 2.36

* * *

As shown below, each of these sequences has a reported protein stability index value.
experiment: protein stability index of a GFP-peptide fusion (GPS, HEK-293T) (PSI 1-6); higher = more stable
test.settings: treatment: DMSO; c terminus: a fixed tail appended

Recorded protein stability index, per entry:
{"columns": ["sequence.chain", "observable", "result"],
 "data": [
  ["SEVSFEGAYGNLKRLYDKAAKMYH [SMG5]", "protein stability index", 2.44],
  ["KTPYDTSRRQEKSAGDADPENGEI [ELOA2]", "protein stability index", 5.3]
]}

Input: Output protein stability index of LWLRPEVHTKEQILELLVLEQFLA [ZNF396]
Output: 2.54

Input: Output protein stability index of AELAGVIKRLWKDSGVQACFNRSR [GNAI1]
Output: 2.62

Input: Output protein stability index of KGGVQNFNKDLVQDCGFEHLVPVI [CEP70]
Output: 2.53

Input: Output protein stability index of RDAIEALCRRLNTLNKCAVMKLEI [DLC1]
Output: 2.13

Input: Output protein stability index of EKEAKDLTELVQRRITYLQNPKDC [FUT8]
Output: 4.76

Input: Output protein stability index of TWYLKTIDICHDHFGWYLGWGDCV [DHCR7]
Output: 3.01

Input: Output protein stability index of KGAILTTMLATRNFSAAKSLLKKP [CAMK2D]
Output: 2.82

* * *

experiment: protein stability index of a GFP-peptide fusion (GPS, HEK-293T) (PSI 1-6); higher = more stable
test.settings: treatment: DMSO; c terminus: a fixed tail appended
As shown below, each of these sequences has a reported protein stability index value.
Please reply with the number alone, leaving off any unit.

Recorded protein stability index, per entry:
{"columns": ["sequence.chain", "observable", "number"],
 "data": [
  ["GFSSIPDAFWWAVVTMTTVGYGDM [KCNA3]", "protein stability index", 3.06],
  ["LFSEASECMLLVFGIDVKEVDPTG [MAGEA10]", "protein stability index", 2.3],
  ["GFEHYDLFFIDGSTPSDNIVRRFL [CDC14A]", "protein stability index", 2.12],
  ["LCLNTEDSFVCQCSEGFLINEDLK [MATN2]", "protein stability index", 3.03]
]}

Input: Output protein stability index of SCHGYTLPGACNIPANVSNCNWFC [KRT33B]
Output: 2.53

Input: Output protein stability index of TSTVNSAREELMESRMRIESLSSQ [LMNB1]
Output: 4.54

Input: Output protein stability index of KKYRLTEHERAHRGEKPHGCSLCG [ZNF649]
Output: 3.72

Input: Output protein stability index of VDLFKQLCEKEPLGNVLFSPICLS [SERPINB5]
Output: 1.98

Input: Output protein stability index of CDVWSIGCILFEYYRGFTLFQTHE [CLK3]
Output: 3.1

* * *

As shown below, each of these sequences has a reported protein stability index value.
experiment: protein stability index of a GFP-peptide fusion (GPS, HEK-293T) (PSI 1-6); higher = more stable
test.settings: treatment: DMSO; c terminus: a fixed tail appended
Please reply with the number alone, leaving off any unit.

Recorded protein stability index, per entry:
{"columns": ["sequence.chain", "number"],
 "data": [
  ["LFLKEGACDELFSYLIEKVKRKKN [PRAME]", 2.18],
  ["FAALRASLVAPLLLELAGEVTDTG [MYORG]", 2.13],
  ["NAININELFIEISRRIPSTDANLP [RAB22A]", 2.35]
]}

Input: Output protein stability index of AKILPSPVQGSSEDNLSLVCLPRS [DRICH1]
Output: 3.94

Input: Output protein stability index of VVEKLNLFLDLLQSYKDLCERHEK [SNX8]
Output: 2.19

Input: Output protein stability index of SEEGSWAQTLAYGDMNHEWIGNEW [PPFIA4]
Output: 3.89

Input: Output protein stability index of LLSKKGALQSRAAQRHRGSAKDGG [PLEKHN1]
Output: 4.31

* * *

experiment: protein stability index of a GFP-peptide fusion (GPS, HEK-293T) (PSI 1-6); higher = more stable
test.settings: treatment: DMSO; c terminus: a fixed tail appended
As shown below, each of these sequences has a reported protein stability index value.

Input: Output protein stability index of LRPSYTGLSSSSARFLSRSIPSLQ [CDC14A]
Output: 3.04

Input: Output protein stability index of MHLNAEGMLSYCDRYSEGIKHVLQ [CRYL1]
Output: 2.4

Input: Output protein stability index of QSSCSGPTHTPRPADFSLGSLPGP [VENTX]
Output: 3.83

* * *

experiment: protein stability index of a GFP-peptide fusion (GPS, HEK-293T) (PSI 1-6); higher = more stable
test.settings: treatment: DMSO; c terminus: a fixed tail appended
protein stability index of 3 or higher: 1.0. Under 3: 0.0.

The following sequences have reported results that may help.
{"columns": ["sequence.chain", "class"],
 "data": [
  ["YDFMNSAFSPIVILTERVSLPFKP [MIA2]", 0.0],
  ["FLVLQSLLERQVEMTPEKFSVLME [FANCE]", 0.0],
  ["KSSIIPFRALKRPLQFLGLFENSL [ZER1]", 0.0],
  ["ASSVHLKSESSLPHQTSKMENLPG", 1.0],
  ["PILSRSTSTGSAASSGSNSSASSE [SPRY1]", 1.0],
  ["PPTINGIKGLQRKERLKPAHIHLQ [KRT34]", 1.0],
  ["VFNAARDGKLRLLTKLLASKSKEE [FEM1C]", 0.0],
  ["PSPEPAGRRAALYVHWPYCEKRCS [RSAD1]", 0.0]
]}

Input: Reported protein stability index at or above 3? AESWCYTQVKVVKFSYMWTINNFS [SPOPL]
Output: 1.0

Input: Reported protein stability index at or above 3? CRGKKPSRIYGQAMAIINGSLYVF [KLHDC10]
Output: 1.0

Input: Reported protein stability index at or above 3? RRKPDPPKDENERSTCNVVQDEFL [DLC1]
Output: 1.0

Input: Reported protein stability index at or above 3? IRAMGRLKIDFGDSARADDARQLF [GNAI1]
Output: 0.0

Input: Reported protein stability index at or above 3? LRVEQKDFPAHRIVLAACSDYFCA [KLHL12]
Output: 0.0

Input: Reported protein stability index at or above 3? RGPLNSDRSDYFAAWGARVFSFGK [TRIM43]
Output: 0.0

Input: Reported protein stability index at or above 3? RAEGTDIPTVKPLKPRPEPPKKPS [ZC2HC1A]
Output: 1.0

* * *

experiment: protein stability index of a GFP-peptide fusion (GPS, HEK-293T) (PSI 1-6); higher = more stable
test.settings: treatment: DMSO; c terminus: a fixed tail appended
As shown below, each of these sequences has a reported protein stability index value.
Please reply with the number alone, leaving off any unit.

Recorded protein stability index, per entry:
{"columns": ["sequence.chain", "number"],
 "data": [
  ["ARFAEKEELMLVHSLEYIDLMETT [HDAC6]", 2.66],
  ["STPRPPEASSSPPEGSQDRNTSWG [TLE6]", 5.32],
  ["VKKKKEEGVIDSSDKEIVAEAERL [EIF5]", 5.04]
]}

Input: Output protein stability index of RVPSFESFEDDCSQSLCLNKPTMS [ETS2]
Output: 4.6

Input: Output protein stability index of LGTKSCSSSCAVHDLIFWRDVKKT [RTN3]
Output: 2.29

Input: Output protein stability index of KLLMADQDSPLDLTVRKSQSEPSE [LCOR]
Output: 4.82

Input: Output protein stability index of MSMNNSKQLVSPAAALLSNTTCQT [PTGFR]
Output: 3.79

Each recorded value in this set is attributed to the supplement of paper PMC10567573.
